- test.details: A CellTox Green Cytotoxicity Assay to monitor cytotoxicity in HepG2 cells - 16 hour (AID 1224876); also: % is scaled to controls: 0 for no effect and ±100 for the full control effect; nearly all actives have a fitted effect of over 45% in size
- applied.conditions: CellTox Green fluorescence; series mostly up to 76.8 µM
Inconclusive results are not listed. Activity calls are given as the source filed them. Calls follow the shape of the dose curve; as a rule, active = well fitted activation curve with a large enough effect in the repeat runs; inconclusive = weak or mixed curves; inactive = flat fitted curve, though single readings scatter.
readout: outcome

Some compounds with recorded outcome:
compound: CCCN(CCC)c1c([N+](=O)[O-])cc(C(C)C)cc1[N+](=O)[O-]
outcome: inactive
//
compound: Nc1ccccc1C(=O)OCC(O)CO (configuration not stated)
outcome: inactive
//
compound: CCNC(=O)NC(=O)/C(C#N)=N/OC
outcome: inactive
//
compound: CCCCCCCCCCCCCCCl
outcome: inactive
//
compound: CCOC(C(=O)OCCN(C)C)(c1ccccc1)c1ccccc1
outcome: inactive
//
compound: CCC1CCC(=O)O1 (configuration not stated)
outcome: inactive

# ---- query compound ----
Qu. Indicate its recorded outcome; the compound in question is CCCCNC(=O)OCC#CI
Ans. inactive

----------
- tgt: Cytochrome P450 2D6 (Homo sapiens)
- test.details: Cytochrome P450 Family 2 Subfamily D Member 6 (CYP2D6) small molecule antagonists: luciferase reporter qHTS assay (AID 1671196); also: nearly all actives have a fitted effect of over 50% in size; also: potency is read from the fitted curve at half-maximal effect
- applied.conditions: P450-Glo CYP2D6 enzyme assay, luciferin luminescence, 1 h; series mostly up to 115 µM
Records with an inconclusive call do not appear. The source made the active and inactive calls. Calls come from the whole dose curve; as a rule, active = well fitted inhibition curve with a large enough effect in the repeat runs; inconclusive = weak or mixed curves; inactive = no such curve, though single readings can be large or run the other way.
readout: Potency

Some compounds with recorded Potency:
compound: CCOP(=O)(SC(C)CC)N1CCSC1=O (stereo not given)
tgt: Cytochrome P450 2D6 (Homo sapiens)
Potency: inactive
--
compound: CCOc1cccc(C2(N3CCN(c4ccccc4)CC3)CCC(C)CC2)c1 (stereo not given)
tgt: Cytochrome P450 2D6 (Homo sapiens)
Potency: inactive
--
compound: C[N+]1(CCC(C(N)=O)(c2ccccc2)c2ccccc2)CCCCC1
tgt: Cytochrome P450 2D6 (Homo sapiens)
Potency: 8.71 µM (active)
--
compound: C1CS1
tgt: Cytochrome P450 2D6 (Homo sapiens)
Potency: inactive
--
compound: C[C@H]1[C@@H]2Cc3ccc(O)cc3[C@@]1(C)CCN2C
tgt: Cytochrome P450 2D6 (Homo sapiens)
Potency: 33.9 µM (active)
--
compound: O=[N+]([O-])c1cc(Cl)c(Cl)cc1Cl
tgt: Cytochrome P450 2D6 (Homo sapiens)
Potency: inactive

Go through the items and report each one's Potency.
1. C[N+]1(CCF)[C@@H]2CC[C@H]1CC(OC(=O)C(O)(c1ccccc1)c1ccccc1)C2 (stereo not given in full)
2. CCN(C(C)=O)c1cccc(-c2ccnc3c(C#N)cnn23)c1

Ans.
1: 17.4 µM (active); 2: inactive

----------
- test.details: qHTS assay to identify small molecule agonists of the NFkB signaling pathway - cell viability counter screen (AID 1159515); also: % is scaled to controls: 0 for no effect and ±100 for the full control effect; nearly all actives have a fitted effect of over 55% in size
- applied.conditions: NFkB-bla ME-180 viability, CellTiter-Glo luminescence, 5 h; series mostly up to 61 µM
Inconclusive results are not listed. The source made the active and inactive calls. Calls follow the shape of the full dose curve.
Write down the outcome that applies. Available outcomes: label 1 (active), label 0 (inactive)

molecule: CN1C(=O)CN=C(c2ccccc2)c2cc([N+](=O)[O-])ccc21
assigned.label: label 0

molecule: Cc1ccc2c(C)cccc2c1
assigned.label: label 0

molecule: CC(C)CCCCCCCOC(=O)c1ccccc1C(=O)OCCCCCCCC(C)C
assigned.label: label 0

Lab note: next molecule to report on.
Qu. // outcome(item) with item = CCOC(=O)c1cn2nc(OP(=S)(OCC)OCC)cc2nc1C
Ans. label 0

----------
- tgt: Nuclear receptor subfamily 1 group I member 2 (Rattus norvegicus) (UniProt Q9R1A7)
- Sequence (Q9R1A7 whole entry, looked up): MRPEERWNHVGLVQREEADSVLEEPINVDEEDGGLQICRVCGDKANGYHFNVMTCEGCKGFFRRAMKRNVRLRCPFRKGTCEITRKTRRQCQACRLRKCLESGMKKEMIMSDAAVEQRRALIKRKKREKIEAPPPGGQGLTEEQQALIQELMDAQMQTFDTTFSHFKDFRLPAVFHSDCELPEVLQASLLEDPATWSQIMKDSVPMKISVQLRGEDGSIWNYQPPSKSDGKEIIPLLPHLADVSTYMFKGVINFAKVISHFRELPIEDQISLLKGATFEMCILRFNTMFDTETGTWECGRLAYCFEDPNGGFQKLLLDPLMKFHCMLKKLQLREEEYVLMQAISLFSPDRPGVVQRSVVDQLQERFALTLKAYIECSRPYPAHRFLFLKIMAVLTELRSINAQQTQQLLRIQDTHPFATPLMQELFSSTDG
- test.details: Rat pregnane X receptor (rPXR) activation by small molecules, qHTS assay (AID 1346983); also: % is scaled to controls: 0 for no effect and ±100 for the full control effect; nearly all actives have a fitted effect of over 20% in size
- applied.conditions: rPXR luciferase reporter cells, One-Glo luminescence, 24 h; stronger effect = higher value
- Text: National Center for Advancing Translational Sciences [NCATS] NIH Chemical Genomics Center [NCGC] U.S. Environmental Protection Agency [EPA] National Institutes of Environmental Health Sciences [NIEHS] National Toxicology Program [NTP] Assay overview: The Pregnane X receptor (PXR), a ligand activated nuclear receptor plays a critical role in the regulation of genes involved in drug metabolism and transporters. […]
Inconclusive results are not listed. Calls of active or inactive are those of the source. Calls come from the whole dose curve; as a rule, active = well fitted activation curve with a large enough effect in the repeat runs; inconclusive = weak or mixed curves; inactive = no such curve, though single readings can be large or run the other way.
readout: max activation

Go through the items and report each one's max activation.
1. O=CC=O
2. CCCC1CCCCN1 (centres undefined)
3. CC[N+]1(C)CCCC(OC(=O)C(O)(c2ccccc2)c2ccccc2)C1 (centres undefined)
4. COc1ccccc1N1CCNCC1

Ans.
1: -4.84% (inactive); 2: -2.95% (inactive); 3: 2.38% (inactive); 4: -3.01% (inactive)

----------
- test.details: qHTS assay to identify small molecule antagonists of the androgen receptor (AR) signaling pathway using the MDA cell line in the presence of 0.5 nM R1881 - cell viability counter screen (AID 1259242); also: % is scaled to controls: 0 for no effect and ±100 for the full control effect; nearly all actives have a fitted effect of over 45% in size
- applied.conditions: MDA-kb2 viability, CellTiter-Fluor protease fluorescence, 16 h; series mostly up to 92.4 µM
Inconclusive results are not listed. Calls of active or inactive are those of the source. The call rests on the fitted dose curve; in most records, active means well fitted cell-killing curve with a large enough effect in the repeat runs; inconclusive means weak or mixed curves, or effect the other way; inactive means flat fitted curve, though single readings scatter.
Write down the outcome that applies. Available outcomes: active, inactive

compound: CC(C)(C#N)C(C)(C)C#N
assigned.label: inactive
--
compound: CCCN(CCC)c1c([N+](=O)[O-])cc(C(C)C)cc1[N+](=O)[O-]
assigned.label: inactive
--
compound: C=CCc1ccccc1O
assigned.label: inactive

Lab note: next compound to report on.
Qu. // outcome(item) with item = CCCC1CCCCN1 (stereo not given)
Ans. inactive

----------
- test.details: qHTS assay for small molecule activators of the heat shock response signaling pathway (AID 743210);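 as to activation: HeLa cells with beta-lactamase reporter driven by heat shock elements; % is scaled to controls: 0 for no effect and ±100 for the full control effect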
- applied.conditions: HeLa HSE-bla reporter, beta-lactamase ratio, 5 h; series mostly up to 62.6 µM
Records with an inconclusive call do not appear. Calls of active or inactive are those of the source. Calls follow the shape of the dose curve; as a rule, active = well fitted activation curve with a large enough effect in the signal ratio in the repeat runs, with a control signal flat (not every such curve was filed as active); inconclusive = weak or mixed curves; inactive = flat fitted curve, though single readings scatter; the % refers to the signal ratio.
Write down the outcome that applies. Available outcomes: active, inactive

molecule: Clc1ccc2ccccc2c1
assigned.label: inactive

molecule: Clc1ccccc1
assigned.label: inactive

Qu. // outcome(item) with item = O=C(O)C(F)(F)C(F)(F)C(F)(F)C(F)(F)C(F)(F)F
Ans. inactive

Qu. // outcome(item) with item = O=C(Cc1ccccc1)OCCc1ccccc1
Ans. inactive

Qu. // outcome(item) with item = COCc1cnc(C2=NC(C)(C(C)C)C(=O)N2)c(C(=O)O)c1 (configuration not stated)
Ans. inactive

Qu. // outcome(item) with item = COC1=CC(=O)O[C@@H](/C=C/c2ccc3c(c2)OCO3)C1
Ans. inactive

Qu. // outcome(item) with item = c1ccc2sc(SNC3CCCCC3)nc2c1
Ans. active

Qu. // outcome(item) with item = C=CC(C)(CCC=C(C)C)OC(=O)c1ccccc1N (configuration not stated)
Ans. inactive

Qu. // outcome(item) with item = OC[P+](CO)(CO)CO
Ans. inactive

Qu. // outcome(item) with item = O=C(O)CCCOc1ccc(Cl)cc1Cl
Ans. inactive

Qu. // outcome(item) with item = CCCCCl
Ans. inactive

Qu. // outcome(item) with item = C[N+]1(CCF)[C@@H]2CC[C@H]1CC(OC(=O)C(O)(c1ccccc1)c1ccccc1)C2 (some centres not stated)
Ans. inactive

----------
- test.details: qHTS assay to test for compound auto fluorescence at 590 nm (red) in HepG2 cell free culture (AID 720684); also: % is scaled to controls: 0 for no effect and ±100 for the full control effect
- applied.conditions: cell-free medium autofluorescence, red 540/590 nm; series mostly up to 91.3 µM
Activity calls are given as the source filed them. Calls follow the shape of the dose curve; as a rule, active = well fitted curve in the direction sought with a large enough effect in the repeat runs; inconclusive = weak or mixed curves; inactive = flat fitted curve, though single readings scatter.
readout: fluorescence, % of Rose Bengal

Some molecules with recorded fluorescence, % of Rose Bengal:
molecule: COP(=O)(OC)OC(Br)C(Cl)(Cl)Br (configuration not stated)
fluorescence, % of Rose Bengal: inactive
--
molecule: CCCC[N+](CCCC)(CCCC)CCCC
fluorescence, % of Rose Bengal: inactive
--
molecule: CCOc1cccc(C2(N3CCN(c4ccccc4)CC3)CCC(C)CC2)c1 (configuration not stated)
fluorescence, % of Rose Bengal: inactive
--
molecule: CCCCC#N
fluorescence, % of Rose Bengal: inactive

Go through the items and report each one's fluorescence, % of Rose Bengal.
1. O=C(O)C(F)(F)C(F)(F)C(F)(F)C(F)(F)C(F)(F)C(F)(F)C(F)(F)C(F)(F)F
2. CC(C)(C)OOC(C)(C)CCC(C)(C)OOC(C)(C)C
3. C[N+]1(CCC(C(N)=O)(c2ccccc2)c2ccccc2)CCCCC1

Ans.
inactive
inactive
inactive

----------
- tgt: Thyrotropin-releasing hormone receptor (Homo sapiens)
- test.details: qHTS assay to identify small molecule agonists of the thyrotropin-releasing hormone receptor (TRHR) signaling pathway (AID 1346891);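 also: HEK293 cells expressing TRHR with calcium dye readout; % is scaled to controls: 0 for no effect and ±100 for the full control effect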
- applied.conditions: TRHR-HEK293 calcium fluorescence, agonist mode; series mostly up to 57.6 µM
Activity calls are given as the source filed them. Calls come from the whole dose curve.
readout: activation

Some molecules with recorded activation:
molecule: CCCC[P+](CC)(CCCC)CCCC (tested in a mixture with another compound)
tgt: Thyrotropin-releasing hormone receptor (Homo sapiens)
result: inactive

molecule: CCCCOC(=O)CCC(=O)OCCCC
tgt: Thyrotropin-releasing hormone receptor (Homo sapiens)
result: inactive

molecule: FC(F)OC(F)(F)C(F)Cl (stereo unspecified)
tgt: Thyrotropin-releasing hormone receptor (Homo sapiens)
result: inactive

molecule: CNC(=O)Oc1cccc(N=CN(C)C)c1
tgt: Thyrotropin-releasing hormone receptor (Homo sapiens)
result: inactive

molecule: CC(C)(c1ccccc1)c1cc(-n2nc3ccccc3n2)c(O)c(C(C)(C)c2ccccc2)c1
tgt: Thyrotropin-releasing hormone receptor (Homo sapiens)
result: inactive

# ---- query molecule ----
Qu. Report value: activation, system: Thyrotropin-releasing hormone receptor (Homo sapiens), molecule: CCCC[N+](CCCC)(CCCC)CCCC
Ans. inactive
